These data points were gathered from patent US20100061982A1.

ASSAY NAME: Microsome Stability (15 min), rat
Assay type: in vitro ADME
CONDITION: microsomes, Phase I (NADPH), read-out: Microsome Stability (15 min) T ½ Phase I rat
Entries annotated with measured half-life
OUTCOME MEASURE: half-life

                               smiles_entry    result
0  COc1ccc2[nH]c(-c3ccccc3)c(C=C3Oc4cc(O)cc(O)c4C3=O)c2c1  > 30 min
1  COc1ccc2c(c1)c(/C=C1\Oc3cc(OC(=O)OC(C)C)cc(OC(=O)OC(C)C)c3C1=O)cn2CCCN(C)C   < 1 min
2  COc1ccc2[nH]c(-c3ccccc3)c(/C=C3\Oc4cc(OC(=O)N(c5ccccc5)c5ccccc5)cc(OC(=O)N(c5ccccc5)c5ccccc5)c4C3=O)c2c1  > 30 min
3  COc1ccc2[nH]c(-c3ccccc3)c(/C=C3\Oc4cc(OP(=O)(O)c5ccccc5)ccc4C3=O)c2c1  > 30 min

* * *

Consider the following compounds and their measured pIC50 readings.
TESTED SYSTEM: PI3K alpha (Homo sapiens)
Sequence (P42336 whole entry, species assumed): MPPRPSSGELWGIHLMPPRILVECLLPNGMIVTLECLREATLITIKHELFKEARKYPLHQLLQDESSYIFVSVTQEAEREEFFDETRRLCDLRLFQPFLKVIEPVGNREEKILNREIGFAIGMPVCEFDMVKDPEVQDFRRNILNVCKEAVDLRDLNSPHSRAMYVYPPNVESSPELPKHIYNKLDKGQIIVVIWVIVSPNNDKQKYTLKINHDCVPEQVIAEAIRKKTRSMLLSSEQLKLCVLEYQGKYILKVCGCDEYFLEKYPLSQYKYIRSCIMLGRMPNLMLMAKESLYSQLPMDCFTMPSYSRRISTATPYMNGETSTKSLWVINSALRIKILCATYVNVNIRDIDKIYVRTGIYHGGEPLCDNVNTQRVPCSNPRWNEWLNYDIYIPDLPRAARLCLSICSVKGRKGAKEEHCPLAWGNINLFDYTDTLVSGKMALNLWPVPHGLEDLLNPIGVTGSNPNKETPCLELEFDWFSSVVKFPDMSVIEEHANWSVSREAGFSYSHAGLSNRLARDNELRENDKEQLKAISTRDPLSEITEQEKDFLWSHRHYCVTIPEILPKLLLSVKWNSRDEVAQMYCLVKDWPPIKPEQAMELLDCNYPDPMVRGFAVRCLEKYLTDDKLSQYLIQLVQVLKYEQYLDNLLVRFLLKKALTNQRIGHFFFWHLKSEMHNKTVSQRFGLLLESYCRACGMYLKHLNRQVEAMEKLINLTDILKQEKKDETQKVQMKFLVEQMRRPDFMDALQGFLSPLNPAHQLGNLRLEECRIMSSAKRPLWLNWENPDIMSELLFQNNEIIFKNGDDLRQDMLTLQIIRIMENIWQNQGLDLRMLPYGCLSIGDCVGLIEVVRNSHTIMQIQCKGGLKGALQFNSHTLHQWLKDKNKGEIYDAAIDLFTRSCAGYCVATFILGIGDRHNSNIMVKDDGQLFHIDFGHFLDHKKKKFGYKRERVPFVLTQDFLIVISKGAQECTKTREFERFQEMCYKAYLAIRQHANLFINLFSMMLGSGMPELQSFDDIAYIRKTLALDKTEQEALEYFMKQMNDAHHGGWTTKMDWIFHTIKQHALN
Sequence (P27986 whole entry partner, species assumed): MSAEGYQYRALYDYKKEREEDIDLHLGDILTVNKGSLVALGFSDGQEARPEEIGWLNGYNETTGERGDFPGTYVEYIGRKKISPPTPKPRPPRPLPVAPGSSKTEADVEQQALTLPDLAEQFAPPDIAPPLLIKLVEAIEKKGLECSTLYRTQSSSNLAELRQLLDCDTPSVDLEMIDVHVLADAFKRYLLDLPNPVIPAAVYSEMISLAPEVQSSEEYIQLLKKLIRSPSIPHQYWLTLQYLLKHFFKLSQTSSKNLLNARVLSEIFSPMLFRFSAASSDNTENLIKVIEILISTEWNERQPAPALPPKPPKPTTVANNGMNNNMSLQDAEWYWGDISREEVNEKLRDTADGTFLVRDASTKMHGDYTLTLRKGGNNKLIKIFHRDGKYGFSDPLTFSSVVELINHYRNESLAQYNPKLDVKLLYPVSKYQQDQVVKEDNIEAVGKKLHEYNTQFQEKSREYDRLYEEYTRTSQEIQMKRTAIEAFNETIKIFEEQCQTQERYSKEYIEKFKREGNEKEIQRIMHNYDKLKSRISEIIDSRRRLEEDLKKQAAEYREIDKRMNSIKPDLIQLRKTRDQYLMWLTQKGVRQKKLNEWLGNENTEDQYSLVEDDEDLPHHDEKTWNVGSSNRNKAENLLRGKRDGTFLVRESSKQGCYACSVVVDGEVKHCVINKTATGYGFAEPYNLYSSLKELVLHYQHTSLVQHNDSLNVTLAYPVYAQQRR
ASSAY NAME: PI3K-alpha Fluorescence Polarization Assay
Assay type: biochemical
CONDITION: read-out: PI3K alpha Mean IC50
pIC50: −log10 of the molar value.
OUTCOME MEASURE: pIC50

                               smiles_entry              tested_system  result
0  COc1ccc2[nH]c(-c3ccccc3)c(/C=C3\Oc4cc(OC(=O)N(c5ccccc5)c5ccccc5)ccc4C3=O)c2c1  PI3K alpha (Homo sapiens)  < 5.00
1  COc1ccc2c(c1)c(/C=C1\Oc3cc(OC(=O)OC(C)C)cc(OC(=O)OC(C)C)c3C1=O)cn2CCCN(C)C  PI3K alpha (Homo sapiens)  < 5.01
2  COc1ccc2[nH]c(-c3ccccc3)c(/C=C3\Oc4cc(OC(=O)N(c5ccccc5)c5ccccc5)cc(OC(=O)N(c5ccccc5)c5ccccc5)c4C3=O)c2c1  PI3K alpha (Homo sapiens)  < 5.30

* * *

ASSAY NAME: Microsome Stability (15 min), nude mouse
Format: in vitro ADME
CONDITION: nude, mouse, microsomes, Phase I (NADPH), read-out: Microsome Stability (15 min) T ½ Phase I nude mouse
Listed here: items and their measured half-life.
OUTCOME MEASURE: half-life (min)

>>> df
                                   compound  outcome_measure  result_qualifier  numeric_result
0  COc1ccc2[nH]c(-c3ccccc3)c(/C=C3\Oc4cc(OC(=O)OC(C)C)cc(OC(=O)OC(C)C)c4C3=O)c2c1 [Example 7]        half-life                 >              30
1  COc1ccc2c(c1)c(/C=C1\Oc3cc(O)cc(O)c3C1=O)c(C)n2CCN1CCN(C)CC1        half-life                 >              30
2  COc1ccc2[nH]c(-c3ccccc3)c(/C=C3\Oc4cc(OC(=O)c5ccccc5)ccc4C3=O)c2c1 [Example 17]        half-life                 >              30
3  COc1ccc2[nH]c(-c3ccccc3)c(/C=C3\Oc4cc(OC(=O)Oc5ccccc5)ccc4C3=O)c2c1 [Example 19]        half-life                 >              30
4  COc1ccc2c(c1)c(/C=C1\Oc3cc(OC(=O)CC(C)C)cc(OC(=O)CC(C)C)c3C1=O)cn2CCCN(C)C [Example 9]        half-life                 =               6
5  COC(=O)Oc1cc(OC(=O)OC)c2c(c1)O/C(=C\c1c(-c3ccccc3)[nH]c3ccc(OC)cc13)C2=O [Example 22]        half-life                 =               4
6  COc1ccc2[nH]c(-c3ccccc3)c(/C=C3\Oc4cc(O)ccc4C3=O)c2c1        half-life                 =              19
